test system: HOP-62 NSCLC; experiment: NCI tumour cell line growth inhibition, 48 h
Quick list: TGI per entry.
Could you give me the number in µM? Just the number is fine.

Consider the worked cases shown below.
{"mol smiles": "NS(=O)(=O)c1ccc(-n2nc3c(c2-c2ccc(Cl)cc2)Cc2ccccc2-3)cc1", "unit symbol": "µM", "TGI": 49.4}
{"mol smiles": "COc1ccc(NC(=O)/C(=C/c2ccccc2)C(C)=O)cc1", "unit symbol": "µM", "TGI": 32.3}

Lab note: need TGI for Nc1ccccc1C#C/C=C\C#Cc1ccc(OCCCNC(=O)c2cc3ccccc3[nH]2)cc1 on HOP-62 NSCLC, anyone have it?
35.7

What do you have for COc1ccc(N=NC(C(=O)c2ccccc2)C(=O)c2ccccc2)cc1 ?
68.5

What do you have for CN(C)CCNC(=O)c1ccc(NCCCN(C)CCCNc2ccc(C(=O)NCCN(C)C)c3[nH]c4ccccc4c(=O)c23)c2c(=O)c3ccccc3[nH]c12 ?
0.459

What do you have for Cc1cnc2sn(-c3ccc([N+](=O)[O-])cc3)c(=O)c2c1 ?
52.4

What do you have for COc1cc2c(c(OC)c1OC)-c1ncc3c(OC)c(OC)c(OC)cc3c1C2 ?
86

What do you have for COC(=O)c1cc2c3ccccc3n3c(=O)c4cc5ccc(N(S(=O)(=O)c6ccc(C)cc6)S(=O)(=O)c6ccc(C)cc6)cc5nc4c(n1)c23 ?
45

====

Quick list: TGI per entry.
tested on: SNB-75 CNS; assay: NCI tumour cell line growth inhibition, 48 h
Could you give me the number in µM? Just the number is fine.

Consider the worked cases shown below.
{"molecule": "Brc1ccc(C[P+]2(c3ccccc3)CCCCC2)cc1", "TGI (µM)": 77.1}
{"molecule": "O=C1/C(=C/c2cccc(Br)c2)COc2ccc(O)cc21", "TGI (µM)": 14.6}
{"molecule": "NS(=O)(=O)c1ccc(-n2nc3c(c2-c2ccc(Cl)cc2)Cc2ccccc2-3)cc1", "TGI (µM)": 30.5}
{"molecule": "Nc1ccccc1C#C/C=C\\C#Cc1ccc(OCCCNC(=O)c2cc3ccccc3[nH]2)cc1", "TGI (µM)": 73.3}
{"molecule": "C=C1C(=O)OC2C/C(C)=C/CC/C(C)=C/CCC3(COC(C)=O)OC3CC12 (stereo not drawn)", "TGI (µM)": 27.6}

For the next question, use this molecule.
Look at this molecule and give its reported TGI. CC[C@@]1(O)C(=O)OCc2c1cc1n(c2=O)Cc2c-1nc1ccccc1c2/C=N\NC(=O)C1CCCN1 (stereo partly drawn)
1.8

====

Quick list: GI50 per entry.
system: OVCAR-3 ovarian; experiment: NCI tumour cell line growth inhibition, 48 h

Consider the worked cases shown below.
{"molecule": "CCNc1cc(-c2cccc(OC(F)(F)F)c2)nc2ccc(N3CCCC3)cc12", "value observed": "1.56 µM"}
{"molecule": "Cc1nc(-c2ccccc2)n2nc(NCCCN3CCOCC3)ncc12", "value observed": "> 25 µM"}
{"molecule": "COc1ccc(/C=C/C(=O)/C=C/c2cc3ccccc3[nH]c2=O)cc1", "value observed": "2.85 µM"}
{"molecule": "CC(=O)c1c(C)nc(SSc2nc(C)c(C(C)=O)c(-c3ccc(Cl)cc3)c2C#N)c(C#N)c1-c1ccc(Cl)cc1", "value observed": "59.9 mg/L"}
{"molecule": "Cc1nn[n-]n1.N.N.N.N.N.[Cl-].[Co+3]", "value observed": "> 100 µM"}

Look at this molecule and give its reported GI50. O=C(/C=C/C12c3ccccc3C(c3ccccc31)C1C(=O)NC(=O)C12)c1ccc(Cl)cc1Cl (stereo unspecified)
1.71 µM

What do you have for CCC[CH2][Sn]([Cl])([Cl])[CH2]CCC ?
1.03 µM

What do you have for O=S(=O)(NCCNc1nccc(-c2c(-c3ccc(F)c(O)c3)nc3sccn23)n1)c1ccc(F)cc1 ?
4.09 µM

What do you have for COc1ccc(-c2ccncc2)cc1C(N)=O ?
> 25 µM

What do you have for COc1cccc(/C(C#N)=C/c2nc3c(N4CCOCC4)nc(Cl)nc3n2C)c1 ?
0.611 µM

What do you have for CN(CCCCCl)P(=O)(OCCS(=O)(=O)CC(NC(=O)CCC(N)C(=O)O)C(=O)NC(C(=O)O)c1ccccc1)OCC1OC(n2ccc(N)nc2=O)C(F)(F)C1O (stereo unspecified) ?
14.7 µM
